assay: inhibitors of E-selectin induction by TNFa, primary screen, imaging, HUVEC, immunofluorescence, MLSMR starter and 10KST1 sets (AID 487);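 further: signal is fraction of cell area covered by stained E-selectin grains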
experimental context: HUVEC TNFalpha-induced E-selectin immunofluorescence imaging, at 2 µM; stronger effect = higher value

{"compound": "COc1ccc(N2CCN(C3CC(=O)NC3=O)CC2)cc1 (stereo unspecified)", "inhibition [%]": -161}
{"compound": "C=CCc1c(C)nc(SCCC)[nH]c1=O", "inhibition [%]": -102}
{"compound": "OC[C@H]1O[C@@H](n2cnc3c(Nc4ccccc4)ncnc32)[C@H](O)[C@@H]1O", "inhibition [%]": -19.9}
{"compound": "O=C(OCCN1CCOCC1)c1ccc(OCCN2CCOCC2)cc1", "inhibition [%]": -54.5}
{"compound": "O=C(O)CC(NCc1ccco1)C(=O)OCCc1ccccc1 (stereo unspecified)", "inhibition [%]": 6.5}
{"compound": "CC(=O)Nc1n[nH]c(S(=O)(=O)Cc2ccc(Cl)cc2Cl)n1", "inhibition [%]": 5.6}
{"compound": "c1coc(-c2nc3nc4ccccc4nc3n2-c2ccc3c(c2)OCCO3)c1", "inhibition [%]": -29.5}
{"compound": "CCN(CC)S(=O)(=O)c1cccc2c(N(C)C)cccc12", "inhibition [%]": -84.9}
{"compound": "CCc1nc(SCc2cccnc2)c(C#N)cc1C", "inhibition [%]": -81.5}
{"compound": "O=C1NC2c3ccccc3C(=O)N2c2c1cnn2-c1ccccc1 (stereo unspecified)", "inhibition [%]": -48.5}
{"compound": "CC(=O)N/C(=N/c1nc(C)cc(C)n1)Nc1ccc(NC(C)=O)cc1", "inhibition [%]": -35}
